# Test system: tumor cells 22RV1
# PROTOCOL TEXT: Anti-tumor activity assay (chemiluminescence CTG cell viability), 22RV1
# Type: cell-based
# CONDITION CONTEXT: Homo sapiens; 22RV1 cells, 72 h, CTG chemiluminescence
MEASUREMENT TYPE: IC50 (µM)

>>> recorded_result("COc1ccc(/C=N/NC(=O)c2n[nH]c3c2CCCC3)cc1O")
0.47
>>> recorded_result("O=C(N/N=C/c1c(O)cc(O)cc1O)c1n[nH]c2c1CCCC2")
49.6
>>> recorded_result("CC(C)C/C=C(/C=N/NC(=O)c1n[nH]c2c1CCCC2)c1ccccc1")
364
>>> recorded_result("Cc1ccc(/C=N/NC(=O)c2n[nH]c3c2CCCC3)cc1")
0.25
>>> recorded_result("COc1ccc(/C=N/NC(=O)c2n[nH]c3c2CCCC3)cc1OC")
4.08

A = Cc1ccc(/C=N/NC(=O)c2n[nH]c3c2CCCC3)cc1O
B = O=C(N/N=C/c1ccc([N+](=O)[O-])cc1)c1n[nH]c2c1CCCC2
-- ask Hey, which is lower on measured IC50, A or B ? Use the label to indicate which entry you chose.
-- reply A
